Consider the following compounds; for each one, report its microsomal CLint at 1 µM.
# measurementProtocol: Intrinsic clearance in mouse liver microsomes at 1 uM after 60 mins by LC-MS/MS analysis
# Format: ADME, Microsome
# assayConditions: read-out: CLH
Give bare numbers, in µL/min/mg.

Cl.NCCc1c[nH]c2c1C(=O)C1=C(NC=CS1(=O)=O)C2=O; 68

// below: microsomal CLint at 1 µM requested for another compound
Suppose we examine the compound "CNCCc1c[nH]c2c1C(=O)C1=C(NC=CS1(=O)=O)C2=O.Cl" ; what microsomal CLint at 1 µM value has been reported?
11

====

# measurementProtocol: Half life in mouse liver microsomes at 1 uM after 60 mins by LC-MS/MS analysis
# Assay type: ADME, Microsome
Consider the following compounds; for each one, report its half-life at 1 µM.

Below, each entry is followed by its recorded half-life at 1 µM result.
Cl.NCCc1c[nH]c2c1C(=O)C1=C(NC=CS1(=O)=O)C2=O; 0.417 h
Cl.Cn1cc(CCN)c2c1C(=O)C1=C(C2=O)S(=O)(=O)C=CN1; > 4.17 h
CNCCc1cn(C)c2c1C(=O)C1=C(NC=CS1(=O)=O)C2=O.Cl; > 4.17 h

// below: half-life at 1 µM requested for another compound
Suppose we examine the compound "CNCCc1c[nH]c2c1C(=O)C1=C(NC=CS1(=O)=O)C2=O.Cl" ; what half-life at 1 µM value has been reported?
2.52 h

====

# measurementProtocol: Intrinsic clearance in human liver microsomes at 1 uM after 60 mins by LC-MS/MS analysis
# Assay type: ADME
# assayConditions: read-out: CLH
measurementKind: microsomal CLint at 1 µM (µL/min/mg)
One number for each entry, in µL/min/mg.

Cl.NCCc1c[nH]c2c1C(=O)C1=C(NC=CS1(=O)=O)C2=O; 46

// below: microsomal CLint at 1 µM requested for another molecule
Suppose we examine the molecule "CNCCc1c[nH]c2c1C(=O)C1=C(NC=CS1(=O)=O)C2=O.Cl" ; what microsomal CLint at 1 µM value has been reported?
17
